The entries that follow carry IC50 values tested on Epithelial discoidin domain-containing receptor 1 (Homo sapiens), drawn from several published reports.

| compound | target or system | IC50 |
| --- | --- | --- |
| CN(C)[C@@H]1CCN(C(=O)c2cc(NC(=O)c3csc4c3CCN(C(=O)c3cnc5ccccn35)C4)cc(C(F)(F)F)c2)C1 | Epithelial discoidin domain-containing receptor 1 (Homo sapiens) | 50 to 80 nM |
| Cn1nc(C(C)(C)C)cc1NC(=O)c1csc2c1CCN(C(=O)c1cnc3ccc(Cl)cn13)C2 | Epithelial discoidin domain-containing receptor 1 (Homo sapiens) | 25 to 50 nM |
| O=C(Nc1cc(F)cc(OC(F)(F)F)c1)c1ccc2c(c1)N(Cc1cnc3cnccn13)CC2 | Epithelial discoidin domain-containing receptor 1 (Homo sapiens) | < 25 nM |
| O=C(Nc1cncc(C(F)(F)F)c1)c1csc2c1CCN(C(=O)c1cnc3cc(F)ccn13)C2 | Epithelial discoidin domain-containing receptor 1 (Homo sapiens) | < 25 nM |
| O=C(Nc1cc(CN2CCCCC2)cc(C(F)(F)F)c1)c1csc2c1CCN(C(=O)c1cnc3ccccn13)C2 | Epithelial discoidin domain-containing receptor 1 (Homo sapiens) | 50 to 80 nM |

Now for a further compound.
Give a short answer stating reported IC50 for O=C(Nc1cccc(C(F)(F)F)c1)c1csc2c1CCN(Cc1cncc(Cl)c1)C2 . 25 to 50 nM
